# System: PC-3 prostate
# procedure.summary: NCI tumour cell line growth inhibition, 48 h
Let's look at some compounds and their measured TGI.

Examples with their reported TGI follow.
compound | TGI
CC(C)(C)NC(=O)N1N=C(c2ccccc2)C1c1ccccc1 (configuration not stated) | 56.5 µM
Cc1nc2ccccc2nc1-c1ccc(N=[N+]([O-])c2ccc(-c3nc4ccccc4nc3C)cc2)cc1 | > 100 µM
COC1C(O)=C2C(=O)O/C(C)=C/C=C/C=C/C=C\CC(c3ccccc3)NC(=O)\C=C/C=C\C=C\C=C\[C@@]2(C)[C@@H]1O (some centres not stated) | 0.103 µM

Prompt: Any idea what TGI was measured for `O=C(CCc1cc(O)cc(O)c1)NCCc1cc(O)cc(O)c1` ?
Completion: > 100 µM

Prompt: Any idea what TGI was measured for `N#Cc1c(-c2ccc(F)cc2)c(-c2ccc(F)cc2)nn(CCO)c1=O` ?
Completion: 54.7 µM

Prompt: Any idea what TGI was measured for `COC12C=C/C(=C(/C(=O)OCc3ccncc3)C(=O)CCCCCCCCC3(OC)C=C/C(=C(/C(=O)OCc4ccncc4)C(=O)CCCCCCCC1)O3)O2` ?
Completion: 2.67 µM

Prompt: Any idea what TGI was measured for `CN(C)/C=N/n1c2ccccc2c2ccccc21` ?
Completion: > 100 µM

Prompt: Any idea what TGI was measured for `Cc1c(O)c(C)c2c(C)cn(C(=O)C(C)(C)C)c2c1C` ?
Completion: 38.5 µM

Prompt: Any idea what TGI was measured for `Cc1ccc(NC(=S)NNC(=O)c2cc(-c3ccccc3)nc3ccccc23)cc1` ?
Completion: 32.2 µM

Prompt: Any idea what TGI was measured for `N#C/C=C(\c1ccc([N+](=O)[O-])cc1)n1nnc2cc(Cl)c(Cl)cc21` ?
Completion: 4 µM

Prompt: Any idea what TGI was measured for `CCN1CCN=c2c3cc(OC)ccc3n3cnc4ccc1c2c43` ?
Completion: 0.8 µM

Prompt: Any idea what TGI was measured for O=C1NN=C2C=C(c3ccc(Cl)cc3)CC(c3cccc(Cl)c3)C12 (configuration not stated) ?
Completion: > 100 µM

Prompt: Any idea what TGI was measured for `COC(=O)C1(OC(=O)Sc2ccccc2)CCN(C)CC1` ?
Completion: > 83.5 µM

Prompt: Any idea what TGI was measured for CC(NNC(=O)CC(=O)N(C(=O)c1ccccc1)c1ccc(Cl)cc1)c1cc2ccccc2oc1=O (configuration not stated) ?
Completion: > 10 µM

Prompt: Any idea what TGI was measured for `Cn1c(N)c2c3c(sc2nc1=O)CCCC3` ?
Completion: > 75 µM

Prompt: Any idea what TGI was measured for `C1CSCCSCCS1` ?
Completion: > 100 µM

Prompt: Any idea what TGI was measured for COc1ccc(OC)c(N2C(=O)CSC2c2cc(OC)c(OC)c(OC)c2)c1 (configuration not stated) ?
Completion: > 100 µM

Prompt: Any idea what TGI was measured for `CC(=O)Nc1ccc(-c2nc3cc(Cl)ccc3o2)cc1` ?
Completion: > 50 µM

Prompt: Any idea what TGI was measured for `CCO/C=N/NC(=O)CSc1nc2ccc(I)cc2c(=O)n1Cc1ccccc1` ?
Completion: > 100 µM

Prompt: Any idea what TGI was measured for Cc1cn(CCCCCOC(=O)NC(CCCN=C(N)N)C(=O)O)c(=O)[nH]c1=O (configuration not stated) ?
Completion: > 100 µM

Prompt: Any idea what TGI was measured for CCOC(=O)NC1CN2CCC1CC2 (configuration not stated) ?
Completion: > 100 µM

Prompt: Any idea what TGI was measured for `C[C@@H]1C[C@](O)([C@@H](C)Cl)C(=O)O[C@@H]2CCN3CC=C(COC(=O)[C@]1(C)O)[C@H]23` ?
Completion: > 100 µM

Data provenance is PubChem BioAssay (NCI).
